The values you see were collected from patent US20200031785A1.

Target: hAC1 (Homo sapiens, UniProt Q08828)
Construct: expressed in transfected cells
Sequence (Q08828 whole entry): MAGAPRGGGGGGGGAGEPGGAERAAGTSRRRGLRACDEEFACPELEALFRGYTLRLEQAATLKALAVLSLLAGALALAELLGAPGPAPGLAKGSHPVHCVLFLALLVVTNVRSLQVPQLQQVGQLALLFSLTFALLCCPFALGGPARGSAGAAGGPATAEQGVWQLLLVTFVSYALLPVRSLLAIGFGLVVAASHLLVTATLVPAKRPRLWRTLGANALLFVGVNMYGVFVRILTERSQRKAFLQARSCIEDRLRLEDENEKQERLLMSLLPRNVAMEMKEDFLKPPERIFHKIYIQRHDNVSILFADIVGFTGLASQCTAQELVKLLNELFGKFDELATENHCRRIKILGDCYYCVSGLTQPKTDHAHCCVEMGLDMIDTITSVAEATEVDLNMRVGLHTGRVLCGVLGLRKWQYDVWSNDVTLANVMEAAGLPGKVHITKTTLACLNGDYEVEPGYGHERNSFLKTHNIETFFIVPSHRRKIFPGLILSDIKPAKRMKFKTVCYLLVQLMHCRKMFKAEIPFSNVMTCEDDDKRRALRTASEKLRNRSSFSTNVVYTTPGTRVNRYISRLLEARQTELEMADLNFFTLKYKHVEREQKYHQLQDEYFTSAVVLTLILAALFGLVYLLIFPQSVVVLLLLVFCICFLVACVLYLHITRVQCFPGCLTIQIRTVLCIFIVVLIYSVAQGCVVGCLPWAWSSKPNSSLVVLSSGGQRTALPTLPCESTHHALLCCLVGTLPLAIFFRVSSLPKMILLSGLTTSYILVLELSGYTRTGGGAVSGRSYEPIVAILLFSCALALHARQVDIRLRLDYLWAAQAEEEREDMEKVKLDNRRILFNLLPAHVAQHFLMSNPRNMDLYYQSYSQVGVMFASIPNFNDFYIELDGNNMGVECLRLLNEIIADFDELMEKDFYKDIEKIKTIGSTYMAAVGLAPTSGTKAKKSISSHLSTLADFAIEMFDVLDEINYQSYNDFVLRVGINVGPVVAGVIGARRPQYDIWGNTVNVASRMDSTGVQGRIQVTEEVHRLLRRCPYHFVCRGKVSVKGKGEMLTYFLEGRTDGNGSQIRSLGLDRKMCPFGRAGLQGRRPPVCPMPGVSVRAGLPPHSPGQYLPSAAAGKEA
Assay: Cyclic AMP accumulation in HEK cells stably expressing AC1, stimulated with A23187 (HTRF)
Assay type: cell-based
Details: stable HEK cell line, A23187-stimulated cAMP accumulation, n ≥ 3; read-out: hAC1 IC50
pIC50: −log10 of the molar value.
endpoint: pIC50

[
  {
    "molecule": "CSc1ccccc1C(=O)Nc1cc(C)nn1-c1nc2c(c(=O)[nH]1)CCC2",
    "system-under-test": "hAC1 (Homo sapiens, UniProt Q08828)",
    "experimental-value": 5.23
  },
  {
    "molecule": "CCc1cc(=O)[nH]c(-n2nc(C)cc2NC(=O)c2ccccc2F)n1",
    "system-under-test": "hAC1 (Homo sapiens, UniProt Q08828)",
    "experimental-value": 6.30
  },
  {
    "molecule": "CSc1cccc(C(=O)Nc2nnc(C3CCCCC3)o2)c1",
    "system-under-test": "hAC1 (Homo sapiens, UniProt Q08828)",
    "experimental-value": 5.12
  },
  {
    "molecule": "O=C(Nc1nnc(-c2ccc3c(c2)CCCC3)o1)c1ccccc1",
    "system-under-test": "hAC1 (Homo sapiens, UniProt Q08828)",
    "experimental-value": 5.68
  },
  {
    "molecule": "CC1CC(C)CN(S(=O)(=O)c2ccc(C(=O)Nc3nnc(-c4cccs4)o3)cc2)C1 (stereo not shown)",
    "system-under-test": "hAC1 (Homo sapiens, UniProt Q08828)",
    "experimental-value": 5.04
  },
  {
    "molecule": "CCc1c(C)nc(-n2nc(C)cc2NC(=O)c2ccco2)[nH]c1=O",
    "system-under-test": "hAC1 (Homo sapiens, UniProt Q08828)",
    "experimental-value": 6.05
  },
  {
    "molecule": "O=C(Nc1nnc(-c2ccc3c(c2)OCCO3)o1)c1ccc(Br)cc1",
    "system-under-test": "hAC1 (Homo sapiens, UniProt Q08828)",
    "experimental-value": 5.70
  }
]

---

Molecular target: hAC1 (Homo sapiens, UniProt Q08828)
Construct: expressed in transfected cells
Experiment: Cyclic AMP accumulation in HEK cells stably expressing AC1, stimulated with A23187 (HTRF)
Format: cell-based
Details: AC8 IC50/AC1 IC50; in the absence of AC8 IC50, estimate based on IC50 ≥30 μM
Entries and their Selectivity AC1 vs AC8

[
  {
    "compound": "CSc1cccc(C(=O)Nc2nnc(C3CCCCC3)o2)c1",
    "Selectivity AC1 vs AC8": ">4-fold"
  },
  {
    "compound": "O=C(Nc1nnc(-c2ccc3c(c2)OCCO3)o1)c1ccc(Br)cc1",
    "Selectivity AC1 vs AC8": "9-fold"
  },
  {
    "compound": "CC1CC(C)CN(S(=O)(=O)c2ccc(C(=O)Nc3nnc(-c4cccs4)o3)cc2)C1 (stereo not drawn)",
    "Selectivity AC1 vs AC8": "2-fold"
  },
  {
    "compound": "CCc1c(C)nc(-n2nc(C)cc2NC(=O)c2ccco2)[nH]c1=O",
    "Selectivity AC1 vs AC8": ">30-fold"
  },
  {
    "compound": "O=C(Nc1nnc(-c2ccc3c(c2)CCCC3)o1)c1ccccc1",
    "Selectivity AC1 vs AC8": "10-fold"
  },
  {
    "compound": "CSc1ccccc1C(=O)Nc1cc(C)nn1-c1nc2c(c(=O)[nH]1)CCC2",
    "Selectivity AC1 vs AC8": ">5-fold"
  }
]
